Entries and their measured EC50 follow.
# Tested Target: T1, recombinant human TfR1 (transferrin receptor 1) (human, UniProt P02786 89-760)
# T1 construct: Bought recombinant His-tagged protein; also called hTfR1
# T1 sequence (P02786 89-760 limits assumed): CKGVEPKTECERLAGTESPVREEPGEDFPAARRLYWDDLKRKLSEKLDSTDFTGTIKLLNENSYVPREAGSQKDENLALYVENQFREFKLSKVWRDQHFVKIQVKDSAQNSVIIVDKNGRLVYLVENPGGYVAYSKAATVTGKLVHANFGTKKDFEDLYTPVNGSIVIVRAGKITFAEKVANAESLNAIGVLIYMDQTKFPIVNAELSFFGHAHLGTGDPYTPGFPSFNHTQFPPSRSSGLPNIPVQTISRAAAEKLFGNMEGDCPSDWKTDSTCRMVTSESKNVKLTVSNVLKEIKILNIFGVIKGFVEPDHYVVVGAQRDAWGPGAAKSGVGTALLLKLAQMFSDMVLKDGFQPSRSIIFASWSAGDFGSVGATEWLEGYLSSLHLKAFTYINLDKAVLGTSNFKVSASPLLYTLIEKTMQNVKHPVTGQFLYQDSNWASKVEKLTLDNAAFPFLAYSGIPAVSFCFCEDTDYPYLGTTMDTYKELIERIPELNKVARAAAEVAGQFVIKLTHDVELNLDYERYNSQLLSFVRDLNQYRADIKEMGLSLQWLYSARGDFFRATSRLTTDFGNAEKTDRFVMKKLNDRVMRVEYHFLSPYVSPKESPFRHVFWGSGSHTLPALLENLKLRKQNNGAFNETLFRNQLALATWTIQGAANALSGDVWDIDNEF
# Assay Method Text: ELISA, plate coated with 1 µg/ml recombinant human TfR1, purified VNAR-Fc titrated, 4-parameter fit

Worked cases, answers included:
- Clone 10 VNAR-Fc fusion protein (Fc fusion, Bivalent VNAR-Fc; also called clone 10-Fc; Clone 10-hFc; not shown: glycine/serine linker (GxSx)n extending the hinge; human IgG1 Fc (hinge, CH2, CH3) of pFUSE-hIgG1e3-Fc2; G236 also deleted) ARVDQTPQTITKETGESLTINCVLRDSNCALSSTYWYRKKSGSTNEENISKGGRYVETVNSGSKSFSLRINDLTVEDSGTYRCNVVQYPSYNNYFWCDVYGDGTAVTVNA: 2.45 nM
- Clone 7 VNAR-Fc fusion protein (Fc fusion, Bivalent VNAR-Fc; not shown: glycine/serine linker (GxSx)n extending the hinge; human IgG1 Fc (hinge, CH2, CH3) of pFUSE-hIgG1e3-Fc2; G236 also deleted) ARVDQTPQTITKETGESLTINCVLRDSNCELSSTYWYRKKSGSTNEARISKGGRYVETVNSGSKSFSLKINDLTVEDSGTYRCNVLTTDSYDLGDVYGDGTVVTVNA: 463 nM
- Clone 39 VNAR-Fc fusion protein (Fc fusion, Bivalent VNAR-Fc; not shown: glycine/serine linker (GxSx)n extending the hinge; human IgG1 Fc (hinge, CH2, CH3) of pFUSE-hIgG1e3-Fc2; G236 also deleted) ARVDQTPQTITKETGESLTINCVLRDSNCALSSTLWYRTKSGSRNEESISKGGRYVETVNSGSKSFSLKINDLTVEDSGTYRCNVQGMVYDGSSFWWCDVYGDSTAVTVNA: 257 nM

Consider the additional binder presented here.
Given Clone 1 VNAR-Fc fusion protein (Fc fusion, Bivalent VNAR-Fc; also called clone 1-Fc; not shown: glycine/serine linker (GxSx)n extending the hinge; human IgG1 Fc (hinge, CH2, CH3) of pFUSE-hIgG1e3-Fc2; G236 also deleted) ARVDQTPQTITKETGESLTINCVLRDNNCALSTTYWYRKKSGSTNEENISKGGRYVETVNSGSKSFSLKINDLTVEDSGTYRCNVRDVQACGNDWVWLDVYGGGTVVTVNA , state its recorded EC50.
4.67 nM
